Numbers sourced from ChEMBL document CHEMBL4513216.

- assay_comment: Toxicity liver stage against HepG2, at 10uM
- Format: cell-based
- Set-up: test concentration 10 uM, cell line HepG2-A16-CD81EGFP
- experimental_context: human, HepG2-A16-CD81EGFP cells; read-out: INHIBITION
property_name: cytotoxicity at 10 µM (%)

compound="Cc1nc(C2CCCN2CCCn2c(=O)oc3ccccc32)no1 (centres undefined)" property_name="cytotoxicity at 10 µM" endpoint_result=6.91
compound="CCc1ncnc(N2CCOCC2C(N)=O)c1F (centres undefined)" property_name="cytotoxicity at 10 µM" endpoint_result=-4.73
compound=CC(=O)N[C@@H](CC(C)C)C(=O)N1CCC(n2cc(C(C)(C)N)nn2)CC1 property_name="cytotoxicity at 10 µM" endpoint_result=-11.7
compound="CNC(=O)CN1CCC(NC(=O)C(C)Oc2ccccc2C#N)CC1 (centres undefined)" property_name="cytotoxicity at 10 µM" endpoint_result=1.97
compound="Cc1ccc(OCCC(=O)NC2CCc3nc(C)cn3C2)cc1 (centres undefined)" property_name="cytotoxicity at 10 µM" endpoint_result=-5.59
compound=CCN(Cc1nc2c(cnn2C)c(=O)[nH]1)Cc1ccccc1Cl property_name="cytotoxicity at 10 µM" endpoint_result=-22.7
compound="CCCN1CC2(CCN(C)CC2)CC1C(=O)NCCn1cccn1 (centres undefined)" property_name="cytotoxicity at 10 µM" endpoint_result=-5.46
compound=Cc1ccc(OCCC(=O)NCCCN2CCCC2=O)c(C)c1 property_name="cytotoxicity at 10 µM" endpoint_result=-1.08
compound="c1cc(CN2Cc3nnn(CC4CC4)c3C(COCC3CC3)C2)co1 (centres undefined)" property_name="cytotoxicity at 10 µM" endpoint_result=-0.336
compound=CN1CCCN(C(=O)c2cc(CN(C)CCc3ccccc3)on2)CC1 property_name="cytotoxicity at 10 µM" endpoint_result=-15.3
compound=Cc1cc(C(=O)N2C[C@@H](C(=O)O)[C@H](c3ccccc3C)C2)c(C)o1 property_name="cytotoxicity at 10 µM" endpoint_result=16.8
compound=CN(C)C(=O)CN1CCCc2c(F)cc(Br)cc21 property_name="cytotoxicity at 10 µM" endpoint_result=-0.682
compound="Cn1ccc(C(=O)N2CCCC(c3cc4cccnc4c(O)n3)C2)n1 (centres undefined)" property_name="cytotoxicity at 10 µM" endpoint_result=4.53
compound=Cc1c(-c2cc(C(F)(F)F)nc(N3CCC(N)CC3)n2)cnn1C property_name="cytotoxicity at 10 µM" endpoint_result=6.14
compound="CN1C(=O)C(c2ccccc2)CC12CCN(CCOCCO)CC2 (centres undefined)" property_name="cytotoxicity at 10 µM" endpoint_result=39.8
compound=CN(C)C(=O)Cn1ccc2cc(NC(=O)N3CCSCC3)ccc21 property_name="cytotoxicity at 10 µM" endpoint_result=5.25
compound=O=c1c2ccccc2ncn1Cc1cc(C2CC2)[nH]n1 property_name="cytotoxicity at 10 µM" endpoint_result=3.8
compound=Cc1cc(NC(=O)CN2CCn3c(nnc3C3CC3)C2)on1 property_name="cytotoxicity at 10 µM" endpoint_result=-9.92
compound="CC(C)c1nc2n(n1)CC(Nc1ncnc3c1CCC3)CC2 (centres undefined)" property_name="cytotoxicity at 10 µM" endpoint_result=-49.1
compound=Cc1cnc(-c2nc(O)c3c(n2)CN(C(=O)CC2CCCC2)CC3)cn1 property_name="cytotoxicity at 10 µM" endpoint_result=-1.37
compound="CCc1c(C)nn(CC(=O)NC(C)c2n[nH]c(C)n2)c1C (centres undefined)" property_name="cytotoxicity at 10 µM" endpoint_result=-14.1
compound="Cc1cc(C)n(CC2CCCN2C(=O)c2c(C)noc2C)n1 (centres undefined)" property_name="cytotoxicity at 10 µM" endpoint_result=-13.8
compound=CC(C)(C)c1noc(CCC(=O)N2CCN(Cc3ccc(Cl)s3)CC2)n1 property_name="cytotoxicity at 10 µM" endpoint_result=3.36
compound="CC(=O)N1CCCC1c1cc(Nc2nnc(C)s2)nc(C)n1 (centres undefined)" property_name="cytotoxicity at 10 µM" endpoint_result=-18.2
